Provide the reported IC50 of each item.
test system: A549; test: Cytotoxicity against human A549 cells incubated for 24 hrs measured 48 hrs post cell re-growth post compound dose by MTT assay; format: functional, cell-based

chemical.smiles | measurement.label | test.value
CCN1C[C@]2(COC)[C@H](O)C[C@H](OC)[C@]34C1[C@H]([C@H](OC)[C@H]23)[C@]1(OC(=O)CCCC(=O)O[C@]23[C@H]5[C@@H](OC(=O)c6ccccc6)[C@](O)(C[C@H]5[C@@]56C7[C@@H]2[C@H](OC)[C@@H]5[C@](COC)(CN7CC)[C@H](O)C[C@@H]6OC)[C@@H](OC)[C@@H]3O)[C@H]2[C@@H](OC(=O)c3ccccc3)[C@](O)(C[C@H]24)[C@@H](OC)[C@@H]1O | IC50 | > 60 µM

I have 5 compounds here; please give me IC50 for each one.
1. CCN1C[C@]2(COC)[C@H](O)C[C@H](OC)[C@]34C1[C@H]([C@H](OC)[C@H]23)[C@]1(OC(=O)CCCCCC(=O)O)[C@H]2[C@@H](OC(=O)c3ccccc3)[C@](O)(C[C@H]24)[C@@H](OC)[C@@H]1O
2. CCN1C[C@]2(COC)[C@H](O)C[C@H](OC)[C@]34C1[C@H]([C@H](OC)[C@H]23)[C@]1(OC(=O)CCCCCC(=O)O[C@]23[C@H]5[C@@H](OC(=O)c6ccccc6)[C@](O)(C[C@H]5[C@@]56C7[C@@H]2[C@H](OC)[C@@H]5[C@](COC)(CN7CC)[C@H](O)C[C@@H]6OC)[C@@H](OC)[C@@H]3O)[C@H]2[C@@H](OC(=O)c3ccccc3)[C@](O)(C[C@H]24)[C@@H](OC)[C@@H]1O
3. CCN1C[C@]2(COC)[C@H](O)C[C@H](OC)[C@]34C1[C@H]([C@H](OC)[C@H]23)[C@]1(OC(=O)CCCCCCCCCC(=O)O)[C@H]2[C@@H](OC(=O)c3ccccc3)[C@](O)(C[C@H]24)[C@@H](OC)[C@@H]1O
4. CCN1C[C@]2(COC)[C@H](O)C[C@H](OC)[C@]34C1[C@H]([C@H](OC)[C@H]23)[C@]1(OC(=O)CCCCC(=O)O)[C@H]2[C@@H](OC(=O)c3ccccc3)[C@](O)(C[C@H]24)[C@@H](OC)[C@@H]1O
5. CCN1C[C@]2(COC)[C@H](O)C[C@H](OC)[C@]34C1[C@H]([C@H](OC)[C@H]23)[C@]1(OC(=O)CCC(=O)O[C@]23[C@H]5[C@@H](OC(=O)c6ccccc6)[C@](O)(C[C@H]5[C@@]56C7[C@@H]2[C@H](OC)[C@@H]5[C@](COC)(CN7CC)[C@H](O)C[C@@H]6OC)[C@@H](OC)[C@@H]3O)[C@H]2[C@@H](OC(=O)c3ccccc3)[C@](O)(C[C@H]24)[C@@H](OC)[C@@H]1O

## Output
["> 60 µM", "9.5 µM", "> 60 µM", "> 60 µM", "> 60 µM"]

----------
assay: Toxicity in iv dosed NOD.Cg-Prkdcscid Il2rgtmw/SzJ jax 005557 mouse assessed as maximum tolerated dose at 10 mg/kg, iv administered as 5 doses every 3 days starting at day 7 post-tumor grafting; type: organism-based; set-up: dose 10 mg/kg, route intravenous; details: in vivo
measurement.label: MTD at 72 h

get_value(item= CCN1C[C@]2(COC)[C@H](O)C[C@H](OC)[C@]34C1[C@H]([C@H](OC)[C@H]23)[C@]1(OC(=O)CCCCCCC(=O)O[C@]23[C@H]5[C@@H](OC(=O)c6ccccc6)[C@](O)(C[C@H]5[C@@]56C7[C@@H]2[C@H](OC)[C@@H]5[C@](COC)(CN7CC)[C@H](O)C[C@@H]6OC)[C@@H](OC)[C@@H]3O)[C@H]2[C@@H](OC(=O)c3ccccc3)[C@](O)(C[C@H]24)[C@@H](OC)[C@@H]1O , readout=MTD at 72 h) returns 15 mg/kg
